Test: Human HepG2 cell viability assay in 384 well format
Type: toxicity, cell-based
Parameters: dose 125 nL, time 70.5 hour; concentration not given beside the values
Settings: HepG2 cells, read-out: Inhibition
Parameter: cytotoxicity at 70.5 h. Scope: all listed entries.
Form entry: value (%) — number only.

Answered cases to consult:
| Compound | Units symbol | Test result |
| --- | --- | --- |
| CN(C)CCOCc1cncc2c1CCN(C1CCOC1)C2 (configuration not stated) | % | -4.13 |
| CNC(=O)c1cccc(NC(=O)NC(C)CCc2cccn2C)c1C (configuration not stated) | % | 5.28 |
| Cn1nccc1CN1CCOC(c2ccc(-c3cncnc3)cn2)C1 (configuration not stated) | % | -6.28 |

Okay, next one:
### Prompt Identify measured cytotoxicity at 70.5 h associated with COCC(=O)NCc1cc(=O)n2c(n1)CN(CC1CC1)CCC2
### Response 0.0162

----------
Assay: Human HepG2 cell viability assay in 384 well format
Format: toxicity, cell-based
Set-up: dose 125 nL, time 70.5 hour; concentration not given beside the values
Conditions: HepG2 cells, read-out: Inhibition
Observed property: cytotoxicity at 70.5 h (%)
Give a bare numeral; the unit % is implied.

| Compound | Observed property | Test result |
| --- | --- | --- |
| Cc1cnc(CN(Cc2ccc(Cl)s2)C2CCN(C)C2)o1 (configuration not stated) | cytotoxicity at 70.5 h | -9.93 |

### Prompt // Input: Cn1cccc1C(=O)N1Cc2c(CN3CCCCC3)nn(C)c2C1 . Output its cytotoxicity at 70.5 h only.
### Response 0.721

----------
Test: Human HepG2 cell viability assay in 384 well format
Format: toxicity, cell-based
Design: dose 125 nL, time 70.5 hour; concentration not given beside the values
Conditions: HepG2 cells, read-out: Inhibition
Observed property: cytotoxicity at 70.5 h (%)
Express your answer in %, writing the number without its unit.

| Compound | cytotoxicity at 70.5 h, % |
| --- | --- |
| CC(CNC(=O)CCc1ccccn1)c1ccsc1 (configuration not stated) | -16.6 |
| C/C(Cl)=C/CNC(=O)[C@H]1CC[C@]2(CC1)CN(C)C(=O)c1ccccc1O2 | -6.71 |
| COCCN1CCC2(COCc3cnc(N4CCOCC4)nc32)C1 (configuration not stated) | 28.1 |

### Prompt # return recorded cytotoxicity at 70.5 h for entry Nc1nccnc1C(=O)N(Cc1ccccc1O)CC1CCCO1 (configuration not stated)
### Response -13.9

### Prompt In one line, give reported cytotoxicity at 70.5 h of the entry Cc1nccn1Cc1nnc(C2CCN(c3ccncc3F)CC2)n1C .
### Response 17.7

### Prompt Quickly give me recorded cytotoxicity at 70.5 h for Cc1ccc(N(CCC#N)C(=O)CN2CCCC2c2ccsc2)cc1C (configuration not stated)
### Response 0.542

----------
Assay: Human HepG2 cell viability assay in 384 well format
Type: toxicity, cell-based
Design: dose 125 nL, time 70.5 hour; concentration not given beside the values
Details: HepG2 cells, read-out: Inhibition
Observed property: cytotoxicity at 70.5 h (%)
Your answer is read as %, so omit the unit and give the number.

Below, 6 compounds whose answers are already recorded.
| Compound | Units symbol | cytotoxicity at 70.5 h |
| --- | --- | --- |
| O=C(Cc1c[nH]c2ncccc12)NCC(O)c1ccsc1 (stereo not given) | % | 0.0548 |
| CS(=O)(=O)CCOc1nc(-c2ccccc2Cl)no1 | % | -102 |
| COCC1COCCC12CCN(S(=O)(=O)c1cccnc1)CC2 (stereo not given) | % | -1.01 |
| NCC1CCCCN1C(=O)Cc1cccc(Br)c1 (stereo not given) | % | -4.6 |
| O[C@H]1CN(Cc2cccc(C(F)(F)F)c2)CC[C@@]12CCCO2 | % | 15.6 |
| CCC(C)CNc1ccc2oc(COC)nc2c1 (stereo not given) | % | 42.8 |

### Prompt State its cytotoxicity at 70.5 h for this compound: CN1CSC[C@H]1C(=O)N1CCC(Cc2ccccc2F)CC1
### Response -4.33

### Prompt Kindly indicate its recorded cytotoxicity at 70.5 h. Item: Cc1ccc(CN2CC3(CCN(C(=O)c4cscn4)C3)C2)s1
### Response -7.12
